Origin of values: patent US9278981B2

- testedSystem: ABL1 (64-515) (Homo sapiens (Human))
- assayProtocol: Caliper ABL1 (64-515) assay (microfluidic mobility shift)
- Format: biochemical
// reported log10 of IC50 for each item listed
measure: log10 of IC50 (log10 of the value in nM)

* Cc1ncc(-c2cc(C(=O)Nc3ccc(OC(F)(F)F)cc3)cnc2N2CC(C)(O)C2)cc1F | 0.15
* O=C(Nc1ccc(OC(F)(F)F)cc1)c1cnc(N2CC[C@@H](O)C2)c(-c2cnccc2F)c1 | -0.10
* CN(C)[C@H]1CN(c2ncc(C(=O)Nc3ccc(OC(F)(F)Cl)cc3)cc2-c2cncnc2)C[C@@H]1O | -0.15
* O=C(Nc1ccc(OC(F)(F)Cl)cc1)c1cnc(N2CC[C@@H](O)C2)c(-c2cc(F)cnc2F)c1 | 0.04
* O=C(Nc1ccc(OC(F)(F)F)cc1)c1cnc(N2CCC(F)(F)C2)c(-c2cncnc2)c1 | 0.67
* O=C(Nc1ccc(OC(F)(F)F)c(F)c1)c1cnc(N2CC[C@H](CO)C2)c(-c2cncc(F)c2)c1 | -0.15
* NC12CC1CN(c1ncc(C(=O)Nc3ccc(OC(F)(F)F)cc3)cc1-c1cncnc1)C2 (stereo not drawn) | 0.28
* CCN(CCO)c1ncc(C(=O)Nc2ccc(OC(F)(F)F)cc2)cc1-c1cncc(C#N)c1 | 0.45
* N#Cc1cncc(-c2cc(C(=O)Nc3ccc(SC(F)(F)F)cc3)cnc2N2CC[C@@H](O)C2)c1 | -0.70
* O=C(Nc1ccc(OC(F)(F)F)c(Cl)c1)c1cnc(N2CC[C@@H](O)C2)c(-c2cncnc2)c1 | 0.63
* Cc1ncc(-c2cc(C(=O)Nc3ccc(OC(F)(F)F)cc3)cnc2N2CC[C@H](CO)C2)cc1F | -0.15
* O=C(Nc1ccc(OC(F)(F)F)cc1)c1cnc(N2CC[C@@H](O)C2)c(-c2cncc(Cl)c2)c1 | 0.04

----------
- testedSystem: ABL1 (64-515) (Homo sapiens (Human), UniProt P00519)
- Sequence (P00519 64-515): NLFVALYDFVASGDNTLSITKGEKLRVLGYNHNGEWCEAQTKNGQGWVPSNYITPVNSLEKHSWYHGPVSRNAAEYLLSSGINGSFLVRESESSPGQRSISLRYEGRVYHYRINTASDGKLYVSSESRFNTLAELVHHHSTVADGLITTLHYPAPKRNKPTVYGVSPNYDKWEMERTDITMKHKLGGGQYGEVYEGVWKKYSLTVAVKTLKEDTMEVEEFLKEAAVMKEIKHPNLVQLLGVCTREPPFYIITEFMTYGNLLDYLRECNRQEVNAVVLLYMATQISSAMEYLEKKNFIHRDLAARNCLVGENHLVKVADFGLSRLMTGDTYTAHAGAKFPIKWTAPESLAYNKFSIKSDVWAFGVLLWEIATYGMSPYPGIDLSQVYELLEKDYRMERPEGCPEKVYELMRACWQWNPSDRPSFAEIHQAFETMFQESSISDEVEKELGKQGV
- assayProtocol: Radio ABL1 (64-515) assay (radiometric filter-binding)
- Format: biochemical
pIC50: −log10 of the molar value.
Recorded pIC50, one value per entry.
measure: pIC50

* CN(C)[C@H]1CN(c2ncc(C(=O)Nc3ccc(OC(F)(F)F)cc3)cc2-c2cncnc2)C[C@@H]1O | 8.70
* NCC1CN(c2ncc(C(=O)Nc3ccc(OC(F)(F)F)cc3)cc2-c2cncc(F)c2)CC1O (stereo not drawn) | 9.22
* O=C(Nc1ccc(OC(F)(F)Cl)cc1)c1cnc(N2CC[C@@H](O)C2)c(-c2cnccc2F)c1 | 8.70
* CC1(O)CN(c2ncc(C(=O)Nc3ccc(OC(F)(F)F)cc3)cc2-c2cccnc2)C1 | 8.52
* O=C(Nc1ccc(OC(F)(F)Cl)cc1)c1cnc(N2C[C@@H](O)[C@@H](O)C2)c(-c2cncc(F)c2)c1 | 9.00
* COc1cncc(-c2cc(C(=O)Nc3ccc(OC(F)(F)F)cc3)cnc2N2CC[C@@H](O)C2)c1 | 8.52
* Cc1ccc(-c2cc(C(=O)Nc3ccc(OC(F)(F)F)cc3)cnc2N2CCC(C(C)(C)O)C2)cn1 (stereo not drawn) | 7.80
* Cc1ncncc1-c1cc(C(=O)Nc2ccc(OC(F)(F)Cl)cc2)cnc1N1CC[C@@H](O)C1 | 8.52

----------
- testedSystem: ABL1 (64-515) (Homo sapiens (Human), UniProt P00519)
- assayProtocol: Caliper ABL1 (64-515) assay (microfluidic mobility shift)
- Type: biochemical
pIC50: −log10 of the molar value.
# binarize pIC50: threshold 9 inclusive, high side class 1, low side class 0

* CN(C)C1CN(c2ncc(C(=O)Nc3ccc(OC(F)(F)F)cc3)cc2-c2cncc(F)c2)C1 [Example 239] | class 0
* COc1ncc(-c2cc(C(=O)Nc3ccc(OC(F)(F)Cl)cc3)cnc2N2CC[C@@H](O)C2)cc1C#N [Example 299] | class 1
* NC12CC1CN(c1ncc(C(=O)Nc3ccc(OC(F)(F)Cl)cc3)cc1-c1cncnc1)C2 (stereo not drawn) [Example 252] | class 1
* O=C(Nc1ccc(SC(F)F)cc1)c1cnc(N2CC[C@@H](O)C2)c(-c2cncnc2)c1 [Example 211] | class 0
* O=C(Nc1ccc(OC(F)(F)Cl)cc1)c1ccc(N2CC[C@@H](O)C2)c(-c2cncnc2)c1 [Example 243] | class 1
* CN(CCO)c1ncc(C(=O)Nc2ccc(OC(F)(F)F)cc2)cc1-c1cncc(C#N)c1 [Example 155] | class 0
* O=C(Nc1ccc(SC(F)(F)F)nc1)c1cnc(N2CC[C@@H](O)C2)c(-c2cncnc2)c1 [Example 279] | class 0
* O=C(Nc1ccc(OC(F)(F)F)cc1)c1cnc(N2CC[C@H](CO)C2)c(-c2ccc(Cl)nc2)c1 [Example 88] | class 1
* CCN(CCO)c1ncc(C(=O)Nc2ccc(OC(F)(F)Cl)cc2)cc1-c1cncc(F)c1 [Example 183] | class 1
* NC1CN(c2ncc(C(=O)Nc3ccc(OC(F)(F)Cl)cc3)cc2-c2cncnc2)C1 [Example 259] | class 1
* O=C(Nc1ccc(OC(F)(F)F)cc1)c1cnc(N2C[C@H](O)[C@@H](O)C2)c(-c2cccnc2)c1 [Example 70] | class 1
* O=C(Nc1ccc(OC(F)(F)Cl)cc1)c1cnc(N(CCO)CCO)c(-c2cncnc2)c1 [Example 261] | class 0
* O=C(Nc1ccc(OC(F)(F)F)cc1)c1cnc(N2CC[C@@H](O)C2)c(-c2cc(F)cnc2F)c1 [Example 49] | class 0

----------
- testedSystem: ABL1 (64-515) (Homo sapiens (Human))
- assayProtocol: Caliper ABL1 (64-515) assay (microfluidic mobility shift)
- Assay type: biochemical
- testConditions: comparison of ortho substitution on the R3/R4 ring
pIC50: −log10 of the molar value.
measure: pIC50

- O=C(Nc1ccc(OC(F)(F)F)cc1Cl)c1cnc(N2CC[C@@H](O)C2)c(-c2cncnc2)c1: 6.07

----------
- testedSystem: ABL1 (64-515) (Homo sapiens (Human), UniProt P00519)
- assayProtocol: Radio ABL1 (64-515) assay (radiometric filter-binding)
- Assay type: biochemical
The compounds listed here are annotated with their IC50.
measure: IC50 (nM)

- N#Cc1cncc(-c2cc(C(=O)Nc3ccc(OC(F)(F)F)c(F)c3)cnc2N2CC[C@@H](O)C2)c1: 4
- O=C(Nc1ccc(OC(F)(F)F)cc1)c1cnc(N2CCCOCC2)c(-c2cncnc2)c1: 2.4
- O=C(Nc1ccc(OC(F)(F)Cl)cc1)c1cnc(N(CCO)CCO)c(-c2cncnc2)c1: 1.8

----------
- testedSystem: ABL1 (64-515) (Homo sapiens (Human))
- assayProtocol: Radio ABL1 (64-515) assay (radiometric filter-binding)
- Format: biochemical
measure: IC50

- O=C(Nc1ccc(OC(F)(F)Cl)cc1)c1cnc(N2CC[C@@H](O)C2)c(-c2cc(F)nc(F)c2)c1: 2 nM
- O=C(Nc1ccc(OC(F)(F)F)cc1)c1cnc(N2CC[C@@H](O)C2)c(-c2cc(F)cc(F)c2)c1: 4 nM
- O=C(Nc1ccc(OC(F)(F)F)cc1)c1cnc(N2CC[C@H](CO)C2)c(-c2cnc(Cl)c(F)c2)c1: < 3 nM
- O=C(Nc1ccc(OC(F)(F)F)c(F)c1)c1cnc(N2CC[C@H](CO)C2)c(-c2cncc(F)c2)c1: 3.4 nM

----------
pIC50 values by entry
- testedSystem: ABL1 (64-515) (Homo sapiens (Human), UniProt P00519)
- assayProtocol: Caliper ABL1 (64-515) assay (microfluidic mobility shift)
- Format: biochemical
pIC50: −log10 of the molar value.
measure: pIC50

* O=C(Nc1ccc(OC(F)(F)F)cc1)c1cnc(N2CC3CN(CCO)CC3C2)c(-c2cncnc2)c1 (stereo not shown) | 7.96
* O=C(Nc1ccc(OC(F)(F)F)cc1)c1cnc(N2CCNC3(CC3)C2)c(-c2cncnc2)c1 | 8.62

----------
- testedSystem: ABL1 (64-515) (Homo sapiens (Human))
- assayProtocol: Radio ABL1 (64-515) assay (radiometric filter-binding)
- Format: biochemical
pIC50: −log10 of the molar value.
Listed next: entries and their corresponding pIC50.
measure: pIC50

- O=C(Nc1ccc(OC(F)(F)F)cc1)c1cnc(N2C3COCC2COC3)c(-c2cncnc2)c1: 8.40
- Cc1ccc(-c2cc(C(=O)Nc3ccc(OC(F)(F)F)cc3)cnc2N2CC[C@@H](CN)C2)cn1: 8.30
- O=C(Nc1ccc(OC(F)(F)F)c(F)c1)c1cnc(N2CC[C@@H](O)C2)c(-c2cncc(F)c2)c1: 8.52
- O=C(Nc1ccc(OC(F)(F)F)cc1)c1cnc(N2CC(CO)C2)c(-c2cncc(F)c2)c1: 8.30
- Nc1ncc(-c2cc(C(=O)Nc3ccc(OC(F)(F)F)cc3)cnc2N2CC[C@@H](O)C2)cn1: 8.40
- Nc1ncc(-c2cc(C(=O)Nc3ccc(OC(F)(F)Cl)cc3)cnc2N2CC[C@@H](O)C2)cc1F: 9.30
- COC(=O)c1cc(F)cc(-c2cc(C(=O)Nc3ccc(OC(F)(F)F)cc3)cnc2N2CC[C@@H](O)C2)c1: 8.40
- O=C(Nc1ccc(OC(F)(F)F)cc1)c1cnc(N2CC[C@@H](O)C2)c(-c2ccc(F)nc2)c1: 8.52
- CC(F)(F)Oc1ccc(NC(=O)c2cnc(N3CC[C@@H](O)C3)c(-c3cncc(F)c3)c2)cc1: 8.30
- O=C(Nc1ccc(S(=O)(=O)C(F)(F)F)cc1)c1cnc(N2CC[C@@H](O)C2)c(-c2cncnc2)c1: 8.10
- CC(F)(F)Oc1ccc(NC(=O)c2cnc(N3CC[C@@H](O)C3)c(-c3cncnc3)c2)cc1: 8.92
- N[C@@H]1[C@H]2CN(c3ncc(C(=O)Nc4ccc(OC(F)(F)F)cc4)cc3-c3cncnc3)C[C@@H]12: 9.05
- O=C(Nc1ccc(OC(F)(F)F)cc1)c1cnc(N2CCOCC2)c(-c2ccc(CO)nc2)c1: 8.52
- N#Cc1ccncc1-c1cc(C(=O)Nc2ccc(OC(F)(F)Cl)cc2)cnc1N1C[C@H](O)[C@@H](O)C1: 8.70
- Cc1ncc(-c2cc(C(=O)Nc3ccc(OC(F)(F)Cl)cc3)ccc2N2C[C@H](O)[C@@H](O)C2)cn1: 9.00
- O=C(Nc1ccc(OC(F)(F)Cl)cc1)c1cnc(N2CC[C@H](CO)C2)c(-c2cncnc2)c1: 8.52
- Cc1ccc(-c2cc(C(=O)Nc3ccc(OC(F)(F)F)cc3)cnc2N2CC[C@@H](CO)C2)cn1: 8.52
- CN(CCO)c1ncc(C(=O)Nc2ccc(SC(F)(F)F)cc2)cc1-c1cncc(C#N)c1: 8.30
- O=C(Nc1ccc(OC(F)(F)Cl)cc1)c1cnc(N2CC[C@@H](CO)[C@@H](O)C2)c(-c2cncnc2)c1: 8.52
- N#Cc1cncc(-c2cc(C(=O)Nc3ccc(SC(F)(F)F)cc3)cnc2N2CC[C@@H](O)C2)c1: 8.40
- O=C(Nc1ccc(OC(F)(F)F)cc1)c1cnc(N2CCCNCC2)c(-c2cccnc2)c1: 8.40
